# assayedSystem: Human SGLT2 (Homo sapiens, UniProt P31639)
# Sequence (P31639 whole entry): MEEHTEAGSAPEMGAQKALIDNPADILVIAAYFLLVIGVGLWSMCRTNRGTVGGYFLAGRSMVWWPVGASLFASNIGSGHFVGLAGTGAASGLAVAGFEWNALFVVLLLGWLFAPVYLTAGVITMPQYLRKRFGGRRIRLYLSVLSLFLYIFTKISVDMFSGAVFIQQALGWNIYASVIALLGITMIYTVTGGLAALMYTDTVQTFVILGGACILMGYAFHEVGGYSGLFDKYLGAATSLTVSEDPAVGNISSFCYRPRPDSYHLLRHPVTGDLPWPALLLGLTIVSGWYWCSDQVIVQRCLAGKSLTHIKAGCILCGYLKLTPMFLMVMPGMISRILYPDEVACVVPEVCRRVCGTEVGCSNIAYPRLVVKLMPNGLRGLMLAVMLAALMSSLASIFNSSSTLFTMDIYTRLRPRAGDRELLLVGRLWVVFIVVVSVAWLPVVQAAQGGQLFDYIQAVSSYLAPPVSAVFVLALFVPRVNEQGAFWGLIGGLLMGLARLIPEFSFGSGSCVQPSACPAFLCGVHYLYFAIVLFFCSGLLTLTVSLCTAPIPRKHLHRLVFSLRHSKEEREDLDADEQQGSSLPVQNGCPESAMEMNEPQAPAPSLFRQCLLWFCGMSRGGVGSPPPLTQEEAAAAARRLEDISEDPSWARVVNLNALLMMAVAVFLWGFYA
# assayInfo: Sodium-dependent sugar uptake inhibition test in CHO-K1 cells stably expressing human SGLT2 (Test Example 2)
# conditionParameters: CHO-K1 cells, [14C]methyl-α-D-glucopyranoside 1 mM, 37° C., one hour
attributeMeasured: IC50 (nM)
// return numeric value only (unit: nM, not printed)

Sample answers from the record:
- smilesRepr: "CCOc1ccc(Cc2cc([C@@H]3S[C@H](CO)[C@@H](O)[C@H](O)[C@H]3O)ccc2Cl)c(F)c1"
  valueReported: 110
- smilesRepr: "COc1ccc([C@@H]2S[C@H](CO)[C@@H](O)[C@H](O)[C@H]2O)cc1Cc1cc2ccccc2s1"
  valueReported: 1120
- smilesRepr: "COc1ccc(Cc2cc([C@@H]3S[C@H](CO)[C@@H](O)[C@H](O)[C@H]3O)ccc2Cl)cc1"
  valueReported: 80
- smilesRepr: "CCc1ccc(Cc2cc([C@@H]3S[C@H](CO)[C@@H](O)[C@H](O)[C@H]3O)c(OC)cc2C)cc1"
  valueReported: 40
- smilesRepr: "COc1cc(C)c(Cc2ccc(C)cc2)cc1[C@@H]1S[C@H](CO)[C@@H](O)[C@H](O)[C@H]1O"
  valueReported: 34
- smilesRepr: "OC[C@H]1S[C@@H](c2cccc(Cc3cc4ccccc4s3)c2)[C@H](O)[C@@H](O)[C@@H]1O"
  valueReported: 3000

# IC50 (compound: COc1cc(OC)c([C@@H]2S[C@H](CO)[C@@H](O)[C@H](O)[C@H]2O)cc1Cc1cc2ccccc2s1 ) is 890

For record CCc1ccc(Cc2cc([C@@H]3S[C@H](CO)[C@@H](O)[C@H](O)[C@H]3O)ccc2Cl)cc1 the listed IC50 is 28

Noted for OC[C@H]1S[C@@H](c2ccc(Cl)c(Cc3cc4ccccc4o3)c2)[C@H](O)[C@@H](O)[C@@H]1O : its IC50 reads 497

Kindly note the recorded IC50 for CC(C)c1ccc(Cc2cc([C@@H]3S[C@H](CO)[C@@H](O)[C@H](O)[C@H]3O)ccc2Cl)cc1 , which is 62

# IC50 of CCOc1ccc(Cc2cc([C@@H]3S[C@H](CO)[C@@H](O)[C@H](O)[C@H]3O)c(O)cc2O)cc1 = 1520

====

# assayedSystem: Human SGLT1 (Homo sapiens)
# Sequence (P13866 whole entry): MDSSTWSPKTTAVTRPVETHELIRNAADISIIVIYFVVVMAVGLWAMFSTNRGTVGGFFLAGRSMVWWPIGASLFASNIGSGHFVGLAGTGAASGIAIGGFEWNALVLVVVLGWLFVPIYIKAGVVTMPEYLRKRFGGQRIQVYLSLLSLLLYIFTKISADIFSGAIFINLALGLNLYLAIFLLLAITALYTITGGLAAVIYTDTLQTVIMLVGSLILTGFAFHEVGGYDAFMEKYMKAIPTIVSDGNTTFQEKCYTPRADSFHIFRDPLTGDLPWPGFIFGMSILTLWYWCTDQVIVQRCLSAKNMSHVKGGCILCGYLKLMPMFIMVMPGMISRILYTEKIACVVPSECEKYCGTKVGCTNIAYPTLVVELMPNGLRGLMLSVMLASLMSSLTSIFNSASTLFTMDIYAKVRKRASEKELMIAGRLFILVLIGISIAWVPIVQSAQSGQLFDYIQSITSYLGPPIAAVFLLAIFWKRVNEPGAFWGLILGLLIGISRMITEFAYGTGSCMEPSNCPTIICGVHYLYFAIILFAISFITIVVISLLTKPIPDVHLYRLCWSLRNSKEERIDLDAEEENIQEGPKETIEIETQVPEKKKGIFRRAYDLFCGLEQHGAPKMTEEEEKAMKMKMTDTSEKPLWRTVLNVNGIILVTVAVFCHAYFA
# assayInfo: Sodium-dependent sugar uptake inhibition test in CHO-K1 cells stably expressing human SGLT1 (Test Example 2)
# conditionParameters: [14C]methyl-α-D-glucopyranoside 0.1 mM, 37° C., 30 minutes
# Protocol: Human SGLT1 sequence (NM_000343) was reverse-transcripted from human small intestinal mRNA, then amplified, and then introduced into pCMV-tag5A from Stratagene Corporation. […] Cells stably expressing human SGLT1 and human SGLT2 were used in the sodium-dependent sugar uptake activity inhibition test. […] After Aquazole 2 (Perkin Elmer Corporation) was added and mixed well, radioactivity was measured with a liquid scintillation counter (Beckman Coulter Corporation). […]
attributeMeasured: IC50 (nM)
Express the result in nM but write the number alone.

// solved cases for IC50 follow
- compound: "CCOc1cc(F)c(Cc2cc([C@@H]3S[C@H](CO)[C@@H](O)[C@H](O)[C@H]3O)ccc2Cl)cc1F [Compound 83]"
  units: "nM"
  valueReported: 1500
- compound: "COc1ccc([C@@H]2S[C@H](CO)[C@@H](O)[C@H](O)[C@H]2O)cc1Cc1cc2ccccc2s1 [Compound 127]"
  units: "nM"
  valueReported: 700
- compound: "CCOc1ccc(Cc2cc([C@@H]3S[C@H](CO)[C@@H](O)[C@H](O)[C@H]3O)ccc2C)cc1 [Compound 86]"
  units: "nM"
  valueReported: 1100

Pending compound:
Given the compound COc1cc(C)c(Cc2ccc(C)cc2)cc1[C@@H]1S[C@H](CO)[C@@H](O)[C@H](O)[C@H]1O [Compound 104] and test system Human SGLT1 (Homo sapiens), the measured IC50 is 1000
